Target: UniProtKB Q8BLF1
Sequence (Q8BLF1 1-408): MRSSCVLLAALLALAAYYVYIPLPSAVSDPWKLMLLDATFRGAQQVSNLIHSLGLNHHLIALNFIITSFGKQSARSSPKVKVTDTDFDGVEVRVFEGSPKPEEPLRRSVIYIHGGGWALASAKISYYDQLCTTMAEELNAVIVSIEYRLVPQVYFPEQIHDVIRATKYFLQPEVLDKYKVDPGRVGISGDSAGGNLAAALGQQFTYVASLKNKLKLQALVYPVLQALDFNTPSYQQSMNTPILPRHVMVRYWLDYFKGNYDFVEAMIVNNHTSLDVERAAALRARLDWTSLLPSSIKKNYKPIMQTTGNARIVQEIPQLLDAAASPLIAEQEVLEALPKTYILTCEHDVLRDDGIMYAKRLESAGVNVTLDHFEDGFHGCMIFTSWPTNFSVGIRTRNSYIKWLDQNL
pIC50: −log10 of the molar value.
Listed compounds paired with reported pIC50

Consider the reported pIC50 for these compounds:
[
  {
    "COMPOUND": "COC(=O)c1cccc(-c2cnc(C(=O)CCCCCCc3ccccc3)s2)n1 [11f]",
    "pIC50": "< 4.00"
  },
  {
    "COMPOUND": "COC(=O)c1cccc(-c2nnc(C(=O)CCCCCCc3ccccc3)s2)n1 [12f]",
    "pIC50": "< 4.00"
  },
  {
    "COMPOUND": "O=C(CCCCCCc1ccccc1)c1ncon1 [10a]",
    "pIC50": "< 4.00"
  },
  {
    "COMPOUND": "O=C(CCCCCCc1ccccc1)c1nc(-c2ccccn2)no1 [9b]",
    "pIC50": 4.52
  },
  {
    "COMPOUND": "O=C(O)c1cccc(-c2nnc(C(=O)CCCCCCc3ccccc3)o2)n1 [8g]",
    "pIC50": "< 4.00"
  }
]

## Input # lookup: pIC50 of O=C(O)c1cccc(-c2ccc(C(=O)CCCCCCc3ccccc3)nn2)n1 [13g]
## Output < 4.00

## Input Entry O=C(CCCCCCc1ccccc1)c1noc(-c2ccccn2)n1 [10b] has what pIC50?
## Output < 4.00

## Input Would you kindly share the measured pIC50 for N#Cc1cccc(-c2ccc(C(=O)CCCCCCc3ccccc3)nn2)n1 [13h] ?
## Output < 4.00

## Input I'd like to know its pIC50. The compound in question is COC(=O)c1cccc(-c2nc(C(=O)CCCCCCc3ccccc3)no2)n1 [10f]
## Output < 4.00

## Input Bench note: what pIC50 did COC(=O)c1cccc(-c2ccc(C(=O)CCCCCCc3ccccc3)nn2)n1 [13f] show?
## Output < 4.00

## Input Field request: pIC50 | item: O=C(O)c1cccc(-c2cnc(C(=O)CCCCCCc3ccccc3)o2)n1 [7g]
## Output < 4.00

## Input Please give the measured pIC50 for this compound: O=C(CCCCCCc1ccccc1)c1nnc(-c2ccccn2)s1 [12b]
## Output < 4.00

## Input Look up pIC50: O=C(CCCCCCc1ccccc1)c1nccs1 [11a, 7-Phenyl-1-(thiazol-2-yl)-heptan-1-one]
## Output < 4.00

## Input # pIC50 lookup, item O=C(CCCCCCc1ccccc1)c1nnco1 [8a]
## Output < 4.00

## Input Given COC(=O)c1nc(C(=O)CCCCCCc2ccccc2)no1 [10h] , state its recorded pIC50.
## Output < 4.00

## Input Entry O=C(CCCCCCc1ccccc1)c1ccc(-c2ccccn2)nn1 [13b] : reported pIC50 = ?
## Output < 4.00

## Input Given the compound COC(=O)c1nnc(C(=O)CCCCCCc2ccccc2)s1 [12h] , what is its reported pIC50?
## Output < 4.00

## Input For O=C(CCCCCCc1ccccc1)c1ncc(-c2cccs2)o1 [7d] , what is its reported pIC50?
## Output < 4.00

## Input Recorded pIC50 of O=C(CCCCCCc1ccccc1)c1nnc(-c2ccccn2)o1 [8b] , please.
## Output 4.05

## Input Report pIC50 for O=C(O)c1cccc(-c2cnc(C(=O)CCCCCCc3ccccc3)s2)n1 [11g] please.
## Output < 4.00

## Input What value of pIC50 has been reported for the following compound? COC(=O)c1cccc(-c2cnc(C(=O)CCCCCCc3ccccc3)o2)n1 [7f]
## Output 4.40

## Input Fill in: pIC50 of O=C(CCCCCCc1ccccc1)c1ncno1 [9a] is ___
## Output 4.60
